These measurements were taken from patent US20260242478A1.

Subject of test: T1, PSMA Fab (SEQ ID NOs: 19, 20)
T1 construct: Biotinylated and captured on neutravidin coated plates in the phage ELISA; also called Anti-PSMA Fab; 006 PSMA Fab
Assay remarks: phage ELISA; biotinylated PSMA Fab on neutravidin plate, anti-M13 HRP; competitor PSMA antigen pre-incubated
Where no end group is shown, it is not given here.
Measure: phage binding ELISA signal
API note: the answer field is a bare number with no unit suffix.

>  <Binder>
VEKWCIPEWMCWTV [Phage-2565]

>  <Number>
0.0709

$$$$
>  <Binder>
NWKWCIPEWMCAAE (cysteine pairing not given here; also: fused to phage pIII, linker and fusion site not given here) [Phage-2563]

>  <Number>
0.0635

$$$$

As a next step, examine the binder that follows.
query: Find the recorded phage binding ELISA signal belonging to IAKWCIPSWMCAGI (cysteine pairing not given here; also: fused to phage pIII, linker and fusion site not given here) [Phage-2571] and report it.
result: 0.139
